TEST DESCRIPTION: Oral bioavailability in Beagle dog at 10 mg/kg measured up to 24 hrs by LC-MS analysis
Assay type: ADME, organism-based, Canis lupus familiaris
EXPERIMENTAL SETUP: beagle, in vivo
EXPERIMENTAL ENDPOINT: bioavailability (%)
State just the number; it will be interpreted in %.

Qu. Give a short answer stating reported bioavailability for C=CC(=O)N1CCN(c2c(C#N)c(=O)n(-c3c(C)ccnc3C(C)C)c3nc(-c4c(N)c(Cl)cc(Cl)c4F)c(Cl)cc23)C[C@H]1C .
Ans. 70.3

----------
ASSAYED SYSTEM: GTPase KRas (Homo sapiens, UniProt P01116, G12C)
Sequence (P01116 whole entry G12C): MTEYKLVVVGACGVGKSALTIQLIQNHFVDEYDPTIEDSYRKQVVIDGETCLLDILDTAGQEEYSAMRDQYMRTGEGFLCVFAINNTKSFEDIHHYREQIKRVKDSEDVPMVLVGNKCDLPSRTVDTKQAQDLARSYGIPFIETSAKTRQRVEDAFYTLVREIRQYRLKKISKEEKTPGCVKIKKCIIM
TEST DESCRIPTION: Inhibition of KRAS G12C mutant in human NCI-H358 cells assessed as reduction in ERK phosphorylation incubated for 2 hrs by HTRF assay
Type: cell-based
Binary label based on IC50 with cut-off 20 nM: below gives yes, not below gives no.

compound=C=CC(=O)N1CCN(c2c(C#N)c(=O)n(-c3c(C(C)C)ncnc3C(C)C)c3nc(-c4c(N)c(Cl)cc(Cl)c4F)c(Cl)cc23)CC1 qualitative_label=yes

Qu. API: query returns whether the compound falls strictly under 20 nM in IC50. Query: C=CC(=O)N1CCN(c2c(C#N)c(=O)n(-c3c(C)ccnc3C(C)C)c3nc(-c4c(N)c(Cl)cc(Cl)c4F)c(Cl)cc23)C[C@@H]1CC#N
Ans. yes

Qu. Does this compound meet the criterion IC50 < 20 nM? C=CC(=O)N1CCN(c2c(C#N)c(=O)n(-c3c(C)ccnc3C(C)C)c3nc(-c4ccccc4F)c(Cl)cc23)CC1
Ans. no

Qu. Is the reported IC50 for C=CC(=O)N1CCN(c2c(C#N)c(=O)n(-c3c(C)ccnc3C(C)C)c3nc(-c4c(N)c(Cl)cc(Cl)c4F)c(Cl)cc23)CC1CC#N (configuration not stated) strictly below 20 nM?
Ans. yes

Qu. Hello, I'm reviewing records and need to know if IC50 of C=CC(=O)N1[C@H](C)CN(c2c(C#N)c(=O)n(-c3c(C)ccnc3C(C)C)c3nc(-c4c(N)c(Cl)cc(Cl)c4F)c(Cl)cc23)C[C@@H]1C is below 20 nM. Could you check?
Ans. no

Qu. Confirm or reject: IC50 of C=CC(=O)N1CCN(c2c(C#N)c(=O)n(-c3c(C)ccnc3C(C)C)c3nc(-c4c(N)c(Cl)cc(Cl)c4F)c(Cl)cc23)C[C@H]1C lies strictly below 20 nM
Ans. no
